- Tested on: STZ-induced diabetic rats
- Experiment notes: Oral mixed-carbohydrate tolerance test (OMCTT) in STZ-induced diabetic rats (Example 9)
- Type: in vivo, rat
- Test context: 0.1 mg/kg oral; before dosing; mixed-carbohydrate load; mean ± S.E.M.
Endpoint: Plasma glucose 0 hr (mg/dL)
Your answer is read as mg/dL, so omit the unit and give the number.

Consider the worked cases shown below.
Compound	Test target	Plasma glucose 0 hr (mg/dL)
Cc1cc(OCCCNCC(N)=O)ccc1Cc1c(O[C@@H]2O[C@H](CO)[C@@H](O)[C@H](O)[C@H]2O)n[nH]c1C(C)C [KGA-2588]	STZ-induced diabetic rats	123
Cc1cc(OCCCNCC(C)(C)C(N)=O)ccc1Cc1c(O[C@@H]2O[C@H](CO)[C@@H](O)[C@H](O)[C@H]2O)n[nH]c1C(C)C [mizagliflozin]	STZ-induced diabetic rats	128

Now for the compound whose Plasma glucose 0 hr we want.
For the compound Cc1cc(OCCCNCCC(N)=O)ccc1Cc1c(O[C@@H]2O[C@H](CO)[C@@H](O)[C@H](O)[C@H]2O)n[nH]c1C(C)C [KGA-2727] , what Plasma glucose 0 hr is on record?
124

###

Each item that follows carries a reported Plasma glucose 3 hr.
- System: STZ-induced diabetic rats
- Experiment notes: Oral mixed-carbohydrate tolerance test (OMCTT) in STZ-induced diabetic rats (Example 9)
- Format: in vivo, rat
- Test context: 0.1 mg/kg oral; mixed-carbohydrate load; mean ± S.E.M.
Your answer is read as mg/dL, so omit the unit and give the number.

Consider the worked cases shown below.
Cc1cc(OCCCNCC(N)=O)ccc1Cc1c(O[C@@H]2O[C@H](CO)[C@@H](O)[C@H](O)[C@H]2O)n[nH]c1C(C)C 114
Cc1cc(OCCCNCC(C)(C)C(N)=O)ccc1Cc1c(O[C@@H]2O[C@H](CO)[C@@H](O)[C@H](O)[C@H]2O)n[nH]c1C(C)C 98

Now for the molecule whose Plasma glucose 3 hr we want.
For the molecule `Cc1cc(OCCCNCCC(N)=O)ccc1Cc1c(O[C@@H]2O[C@H](CO)[C@@H](O)[C@H](O)[C@H]2O)n[nH]c1C(C)C` , what Plasma glucose 3 hr is on record?
106

###

- System: STZ-induced diabetic rats
- Experiment notes: OGTT in STZ-induced diabetic rats (Example 8)
- Format: in vivo, rat
- Test context: 0.1 mg/kg oral; glucose 2 g/kg; mean ± S.E.M.
Marks after values point to notes of the source that are not given here.
Each item that follows carries a reported Plasma glucose 3 hr.

Consider the worked cases shown below.
Compound	Plasma glucose 3 hr
Cc1cc(OCCCNCC(C)(C)C(N)=O)ccc1Cc1c(O[C@@H]2O[C@H](CO)[C@@H](O)[C@H](O)[C@H]2O)n[nH]c1C(C)C [mizagliflozin]	137 ± 26 mg/dL
Cc1cc(OCCCN)ccc1Cc1c(O[C@@H]2O[C@H](CO)[C@@H](O)[C@H](O)[C@H]2O)n[nH]c1C(C)C [KGA-2586]	105 ± 12^ mg/dL
Cc1cc(OCCCNCCC(N)=O)ccc1Cc1c(O[C@@H]2O[C@H](CO)[C@@H](O)[C@H](O)[C@H]2O)n[nH]c1C(C)C [KGA-2727]	102 ± 16^ mg/dL

For the compound Cc1cc(OCCCNCC(N)=O)ccc1Cc1c(O[C@@H]2O[C@H](CO)[C@@H](O)[C@H](O)[C@H]2O)n[nH]c1C(C)C [KGA-2588] , what Plasma glucose 3 hr is on record?
145 ± 5^z mg/dL

###

Each item that follows carries a reported Plasma glucose 3 hr.
- System: STZ-induced diabetic rats
- Experiment notes: Oral mixed-carbohydrate tolerance test (OMCTT) in STZ-induced diabetic rats (Example 9)
- Assay type: in vivo, rat
- Test context: 0.03 mg/kg oral; mixed-carbohydrate load; mean ± S.E.M.

For the compound Cc1cc(OCCCNCCC(N)=O)ccc1Cc1c(O[C@@H]2O[C@H](CO)[C@@H](O)[C@H](O)[C@H]2O)n[nH]c1C(C)C [KGA-2727] , what Plasma glucose 3 hr is on record?
104 ± 7 mg/dL

For the compound Cc1cc(OCCCNCC(N)=O)ccc1Cc1c(O[C@@H]2O[C@H](CO)[C@@H](O)[C@H](O)[C@H]2O)n[nH]c1C(C)C [KGA-2588] , what Plasma glucose 3 hr is on record?
100 ± 6 mg/dL

For the compound Cc1cc(OCCCN)ccc1Cc1c(O[C@@H]2O[C@H](CO)[C@@H](O)[C@H](O)[C@H]2O)n[nH]c1C(C)C [KGA-2586] , what Plasma glucose 3 hr is on record?
108 ± 10 mg/dL

For the compound Cc1cc(OCCCNCC(C)(C)C(N)=O)ccc1Cc1c(O[C@@H]2O[C@H](CO)[C@@H](O)[C@H](O)[C@H]2O)n[nH]c1C(C)C [mizagliflozin] , what Plasma glucose 3 hr is on record?
106 ± 4 mg/dL

###

- Test target: rat SGLT2 (Rattus norvegicus, UniProt P53792)
- Sequence (P53792 1-670): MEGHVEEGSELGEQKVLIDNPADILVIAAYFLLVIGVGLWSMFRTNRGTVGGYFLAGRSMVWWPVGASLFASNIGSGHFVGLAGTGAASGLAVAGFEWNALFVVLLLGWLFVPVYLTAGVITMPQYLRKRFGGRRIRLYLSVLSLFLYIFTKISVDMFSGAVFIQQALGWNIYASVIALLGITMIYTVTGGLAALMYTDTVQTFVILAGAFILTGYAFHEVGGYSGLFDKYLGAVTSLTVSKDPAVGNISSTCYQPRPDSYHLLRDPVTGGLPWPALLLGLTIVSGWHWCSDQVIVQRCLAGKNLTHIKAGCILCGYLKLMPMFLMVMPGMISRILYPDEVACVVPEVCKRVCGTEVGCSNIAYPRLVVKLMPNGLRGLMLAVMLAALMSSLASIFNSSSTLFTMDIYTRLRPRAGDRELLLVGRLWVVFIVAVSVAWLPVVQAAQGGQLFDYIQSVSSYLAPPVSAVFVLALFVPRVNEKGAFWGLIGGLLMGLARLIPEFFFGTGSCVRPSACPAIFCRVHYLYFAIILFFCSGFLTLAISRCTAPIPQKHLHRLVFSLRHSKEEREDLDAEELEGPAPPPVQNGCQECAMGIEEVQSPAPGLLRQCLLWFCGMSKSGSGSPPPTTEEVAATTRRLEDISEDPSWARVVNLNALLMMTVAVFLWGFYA
- Experiment notes: Inhibition of radiolabeled α-MG uptake into COS-7 cells transfected with rat SGLT2 (Dixon plot)
- Test context: α-MG 0.3 and 1 mM
Each item that follows carries a reported pKi.
Note on pKi: it is the negative log10 of concentration, concentration in mol/L.

Compound	Test target	pKi
Cc1cc(OCCCNCC(C)(C)C(N)=O)ccc1Cc1c(O[C@@H]2O[C@H](CO)[C@@H](O)[C@H](O)[C@H]2O)n[nH]c1C(C)C	rat SGLT2 (Rattus norvegicus, UniProt P53792)	4.85

For the compound O=C(CCc1ccc(O)cc1)c1c(O)cc(O)cc1O[C@@H]1O[C@H](CO)[C@@H](O)[C@H](O)[C@H]1O [phlorizin, reference compound] , what pKi is on record?
7.39

###

- Experiment notes: Oral pharmacokinetics and excretion in rats
- Type: in vivo, rat
- Test context: male, rat, plasma, po
Endpoint: bioavailability

For the compound `Cc1cc(OCCCNCC(C)(C)C(N)=O)ccc1Cc1c(O[C@@H]2O[C@H](CO)[C@@H](O)[C@H](O)[C@H]2O)n[nH]c1C(C)C` , what bioavailability is on record?
0.01 to 0.08%

###

Each item that follows carries a reported Plasma glucose 2 hr.
- Tested on: STZ-induced diabetic rats
- Experiment notes: OGTT in STZ-induced diabetic rats (Example 8)
- Assay type: in vivo, rat
- Test context: 0.1 mg/kg oral; glucose 2 g/kg; mean ± S.E.M.
Marks after values point to notes of the source that are not given here.

Consider the worked cases shown below.
Compound	Reading
Cc1cc(OCCCN)ccc1Cc1c(O[C@@H]2O[C@H](CO)[C@@H](O)[C@H](O)[C@H]2O)n[nH]c1C(C)C [KGA-2586]	193 ± 21^x mg/dL
Cc1cc(OCCCNCCC(N)=O)ccc1Cc1c(O[C@@H]2O[C@H](CO)[C@@H](O)[C@H](O)[C@H]2O)n[nH]c1C(C)C [KGA-2727]	194 ± 12^x mg/dL
Cc1cc(OCCCNCC(C)(C)C(N)=O)ccc1Cc1c(O[C@@H]2O[C@H](CO)[C@@H](O)[C@H](O)[C@H]2O)n[nH]c1C(C)C [mizagliflozin]	238 ± 53 mg/dL

For the compound Cc1cc(OCCCNCC(N)=O)ccc1Cc1c(O[C@@H]2O[C@H](CO)[C@@H](O)[C@H](O)[C@H]2O)n[nH]c1C(C)C [KGA-2588] , what Plasma glucose 2 hr is on record?
221 ± 33^x mg/dL

###

- Test target: human SGLT1 (Homo sapiens)
- Sequence (P13866 whole entry): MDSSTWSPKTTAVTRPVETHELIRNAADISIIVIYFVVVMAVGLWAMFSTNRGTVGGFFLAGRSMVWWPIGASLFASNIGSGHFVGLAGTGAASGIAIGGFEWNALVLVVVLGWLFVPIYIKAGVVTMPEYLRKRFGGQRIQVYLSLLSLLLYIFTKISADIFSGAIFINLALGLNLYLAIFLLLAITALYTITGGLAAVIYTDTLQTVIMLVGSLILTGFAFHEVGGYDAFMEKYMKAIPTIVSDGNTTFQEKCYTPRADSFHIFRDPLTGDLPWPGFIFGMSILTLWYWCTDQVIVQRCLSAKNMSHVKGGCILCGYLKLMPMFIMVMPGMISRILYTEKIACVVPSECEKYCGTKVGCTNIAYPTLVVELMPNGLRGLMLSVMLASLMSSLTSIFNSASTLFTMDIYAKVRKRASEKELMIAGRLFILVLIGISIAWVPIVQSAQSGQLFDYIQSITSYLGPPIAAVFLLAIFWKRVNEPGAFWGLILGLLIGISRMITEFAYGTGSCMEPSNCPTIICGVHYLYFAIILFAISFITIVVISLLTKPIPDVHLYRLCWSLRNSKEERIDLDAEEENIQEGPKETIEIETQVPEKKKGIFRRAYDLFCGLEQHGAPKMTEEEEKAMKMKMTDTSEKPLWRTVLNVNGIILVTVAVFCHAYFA
- Experiment notes: Inhibition of radiolabeled α-MG uptake into COS-7 cells transfected with human SGLT1 (Dixon plot)
- Test context: α-MG 0.3 and 1 mM; COS-7 cells; read-out: inhibition constant for human SGLT1
Endpoint: Ki (nM)
Your answer is read as nM, so omit the unit and give the number.

For the molecule Cc1cc(OCCCNCC(C)(C)C(N)=O)ccc1Cc1c(O[C@@H]2O[C@H](CO)[C@@H](O)[C@H](O)[C@H]2O)n[nH]c1C(C)C [mizagliflozin] , what Ki is on record?
27
